Value source: paper PMC5656002

# key: entry, value: Ki
Biological target: KPC-2 β-lactamase (purified) (UniProt Q9F663 30-293)
Sequence (Q9F663 30-293): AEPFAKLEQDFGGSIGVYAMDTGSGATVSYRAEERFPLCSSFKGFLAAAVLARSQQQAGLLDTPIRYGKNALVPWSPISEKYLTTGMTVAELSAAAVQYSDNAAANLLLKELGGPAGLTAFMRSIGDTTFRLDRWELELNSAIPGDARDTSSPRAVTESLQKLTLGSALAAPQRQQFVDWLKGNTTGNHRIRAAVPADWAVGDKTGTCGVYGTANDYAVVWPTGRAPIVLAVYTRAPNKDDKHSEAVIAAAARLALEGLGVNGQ
Assay: enzyme inhibition assay

binder	Ki / nM
BLIP E73K:K74T (natural protein) AGVMTGAKFTQIQFGMTRQQVLDIAGAENCETGGSFGDSIHCRGHAAGDYYAYATFGFTSAAADAKVDSKSQKTLLAPSAPTLTLAKFNQVTVGMTRAQVLATVGQGSCTTWSEYYPAYPSTAGVTLSLSCFDVDGYSSTGFYRGSAHLWFTDGVLQGKRQWDLV	1.6
BLIP K74T:R160G (natural protein) AGVMTGAKFTQIQFGMTRQQVLDIAGAENCETGGSFGDSIHCRGHAAGDYYAYATFGFTSAAADAKVDSKSQETLLAPSAPTLTLAKFNQVTVGMTRAQVLATVGQGSCTTWSEYYPAYPSTAGVTLSLSCFDVDGYSSTGFYRGSAHLWFTDGVLQGKGQWDLV	150
BLIP E73K:R160G (natural protein) AGVMTGAKFTQIQFGMTRQQVLDIAGAENCETGGSFGDSIHCRGHAAGDYYAYATFGFTSAAADAKVDSKSQKKLLAPSAPTLTLAKFNQVTVGMTRAQVLATVGQGSCTTWSEYYPAYPSTAGVTLSLSCFDVDGYSSTGFYRGSAHLWFTDGVLQGKGQWDLV	128
BLIP K74T:W112D (natural protein) AGVMTGAKFTQIQFGMTRQQVLDIAGAENCETGGSFGDSIHCRGHAAGDYYAYATFGFTSAAADAKVDSKSQETLLAPSAPTLTLAKFNQVTVGMTRAQVLATVGQGSCTTDSEYYPAYPSTAGVTLSLSCFDVDGYSSTGFYRGSAHLWFTDGVLQGKRQWDLV	0.4
